Biological target: Lp-PLA2 from plasma (pooled human plasma) (Homo sapiens, UniProt Q13093)
Construct: 8 μL pooled human plasma; from tissue; host or cells: pooled human plasma
Sequence (Q13093 22-441): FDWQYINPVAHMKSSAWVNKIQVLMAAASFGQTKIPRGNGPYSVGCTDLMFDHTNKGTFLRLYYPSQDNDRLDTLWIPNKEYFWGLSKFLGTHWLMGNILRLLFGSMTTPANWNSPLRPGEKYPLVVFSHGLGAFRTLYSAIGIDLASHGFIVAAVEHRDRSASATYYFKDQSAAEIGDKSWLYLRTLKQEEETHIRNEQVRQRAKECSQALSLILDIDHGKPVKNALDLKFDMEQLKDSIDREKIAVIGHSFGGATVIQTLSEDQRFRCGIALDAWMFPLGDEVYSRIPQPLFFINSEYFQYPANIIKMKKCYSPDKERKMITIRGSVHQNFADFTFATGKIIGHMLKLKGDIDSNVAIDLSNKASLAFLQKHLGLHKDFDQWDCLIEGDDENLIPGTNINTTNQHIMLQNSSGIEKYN
Assay: Lp-PLA2 human plasma assay (Thio-PAF assay)
Assay type: biochemical
Details: text thresholds, read-out: pIC50 values in the thio-PAF assay (converted)
Entries and their measured IC50 follow.

Recorded IC50, per entry:
1. COc1ncc(Cc2c[nH]c(OCCc3cc(F)c(Oc4ccc(Cl)c(C(F)(F)F)c4)c(F)c3)nc2=O)cn1
≤ 100 nM
2. CCc1cn(CC)c(OCCc2ccc(Oc3ccc(Cl)c(C(F)(F)F)c3)cc2)nc1=O
≤ 1000 nM
3. COc1ncc(Cc2c[nH]c(OCCc3ccc(Oc4ccc(Cl)c(OC(F)(F)F)c4)cc3)nc2=O)cn1
≤ 100 nM
4. Cc1ncc(Cc2c[nH]c(NCCc3ccc(Oc4ccc(C(F)(F)F)cn4)cc3)nc2=O)cn1
≤ 1000 nM

Give the measured IC50 for O=c1nc(NCCc2ccc(Oc3ccc(Cl)cc3)cc2)[nH]cc1Cc1cncnc1 ≤ 1000 nM

// Input: O=c1ncc(Cc2c[nH]c(NCCc3ccc(Oc4ccc(Cl)c(C(F)(F)F)c4)cc3)nc2=O)c[nH]1 . Output its IC50 only. ≤ 1000 nM
